Tested on: HT-29
assay-text: Cytotoxicity against human HT-29 cells after 96 hrs by SRB assay
Assay type: functional, cell-based
condition-parameters: HT-29, 96 h
Recorded measurements of EC50, one per entry
Numeric answer only, unit µM assumed.

INSERT INTO measurements (smiles_text, test_system, measured_endpoint, unit_abbreviation, observed_result) VALUES
  ('CONC(=O)[C@]12CCC(C)(C)C[C@H]1C1=CC[C@@H]3[C@@]4(C)CC[C@H](O)C(C)(C)[C@@H]4CC[C@@]3(C)[C@]1(C)CC2', 'HT-29', 'EC50', 'µM', 18.8),
  ('CC1(C)CC[C@]2(C(=O)NO)CC[C@]3(C)C(=CC[C@@H]4[C@@]5(C)CC[C@H](O)C(C)(C)[C@@H]5CC[C@]43C)[C@@H]2C1', 'HT-29', 'EC50', 'µM', 4.7);

Please look up its EC50: CON(C)C(=O)[C@]12CC[C@@H](C)[C@H](C)[C@H]1C1=CC[C@@H]3[C@@]4(C)CC[C@H](OC(C)=O)C(C)(C)[C@@H]4CC[C@@]3(C)[C@]1(C)CC2
17.6

====

Tested on: A549
assay-text: Cytotoxicity against human A549 cells after 96 hrs by SRB assay
Assay type: functional, cell-based
condition-parameters: A549, 96 h
Recorded measurements of pEC50, one per entry
Give only the number. pEC50 is defined as minus log10 of concentration in molar units.

These recorded examples may help you get a feel for the data.
INSERT INTO measurements (smiles_text, observed_result) VALUES
  ('C[C@H]1[C@H](C)CC[C@]2(C(=O)NO)CC[C@]3(C)C(=CC[C@@H]4[C@@]5(C)CC[C@H](O)C(C)(C)[C@@H]5CC[C@]43C)[C@H]12', 5.17),
  ('CONC(=O)[C@]12CCC(C)(C)C[C@H]1C1=CC[C@@H]3[C@@]4(C)CC[C@H](OC(C)=O)C(C)(C)[C@@H]4CC[C@@]3(C)[C@]1(C)CC2', 4.73);

Attention now shifts to the item below.
Requested read-out pEC50, target or system A549, entry CON(C)C(=O)[C@]12CC[C@@H](C)[C@H](C)[C@H]1C1=CC[C@@H]3[C@@]4(C)CC[C@H](O)C(C)(C)[C@@H]4CC[C@@]3(C)[C@]1(C)CC2
4.94

====

System: MCF7
assay-text: Cytotoxicity against human MCF7 cells after 96 hrs by SRB assay
Type: functional, cell-based
condition-parameters: MCF7, 96 h
measured-endpoint: EC50 (µM)
Numeric answer only, unit µM assumed.

These recorded examples may help you get a feel for the data.
INSERT INTO assay_data (smiles_text, observed_result) VALUES
  ('CC(=O)O[C@H]1CC[C@]2(C)[C@H]3CC=C4[C@@H]5[C@@H](C)[C@H](C)CC[C@]5(C(=O)N(C)O)CC[C@@]4(C)[C@]3(C)CC[C@H]2C1(C)C', 7.9),
  ('C[C@H]1[C@H](C)CC[C@]2(C(=O)NO)CC[C@]3(C)C(=CC[C@@H]4[C@@]5(C)CC[C@H](O)C(C)(C)[C@@H]5CC[C@]43C)[C@H]12', 13.1),
  ('C[C@H]1[C@H](C)CC[C@]2(C(=O)N(C)O)CC[C@]3(C)C(=CC[C@@H]4[C@@]5(C)CC[C@H](O)C(C)(C)[C@@H]5CC[C@]43C)[C@H]12', 15.4),
  ('CONC(=O)[C@]12CC[C@@H](C)[C@H](C)[C@H]1C1=CC[C@@H]3[C@@]4(C)CCC(=O)C(C)(C)[C@@H]4CC[C@@]3(C)[C@]1(C)CC2', 11.2);

Attention now shifts to the item below.
Please look up its EC50: CON(C)C(=O)[C@]12CC[C@@H](C)[C@H](C)[C@H]1C1=CC[C@@H]3[C@@]4(C)CC[C@H](OC(C)=O)C(C)(C)[C@@H]4CC[C@@]3(C)[C@]1(C)CC2
15.4
